Measured values drawn from ChEMBL document CHEMBL1157539 for this set.

I'd be grateful if you could share measured Inhibition for these entries.
System: Plasmodium falciparum
measurement_description: GSK_TCMDC: Inhibition of Plasmodium falciparum 3D7 in whole red blood cells, using parasite LDH activity as an index of growth. Test compounds present at 2uM
Type: functional
The answer is to be given in %; state only the numeric part.

Exam item: Could you share which Inhibition value was measured for `Cn1cc(CN2CCC(CCOC(c3ccccc3)c3ccccc3)CC2)cn1` ?
Marked response: 99

Exam item: Could you share which Inhibition value was measured for `CC[C@H]1CN2CC[C@H]1C[C@H]2[C@H](O)c1cc(-c2ccccc2F)nc2ccc(OC)cc12.Cl` ?
Marked response: 99

Exam item: Could you share which Inhibition value was measured for COc1ccc(CN(C2CC2)C(C)C(=O)c2[nH]c(C)c(C(C)=O)c2C)cc1 (stereo not given) ?
Marked response: 98

Exam item: Could you share which Inhibition value was measured for `Oc1ccc(CN2CCN(CCOC(c3ccc(F)cc3)c3ccc(F)cc3)CC2)cc1Cl` ?
Marked response: 96

Exam item: Could you share which Inhibition value was measured for `Oc1ccc2[nH]cc(C3=CCN(CCc4ccccc4)CC3)c2c1` ?
Marked response: 96

###

Tested on: HepG2
measurement_description: GSK_TCMDC: Percent inhibition of human HepG2 cell line. Test compounds present at 10uM.
Assay type: functional
Category key, based on recorded Inhibition: range 1: < 7%; range 2: ≥ 7% and < 20%; range 3: ≥ 20%

Exam item: Which bin should I file `CCCCCCCn1c(=O)c(C(=O)Nc2c(C)cccc2C)c(O)c2ccccc21` under?
Marked response: range 1

Exam item: Which bin should I file `CC(=O)Nc1ccc(CN2CCC(N(C)c3cc(NC(=O)c4cccs4)ccn3)CC2)cc1.O=C(O)C(F)(F)F` under?
Marked response: range 1

Exam item: Which bin should I file `C=C[C@H]1CN2CC[C@H]1C[C@H]2[C@H](OS(=O)(=O)O)c1ccnc2ccccc12` under?
Marked response: range 2

Exam item: Which bin should I file `O=C(Cc1cc(=O)oc2cc(O)ccc12)N1CCC(CN2CCC(c3c[nH]c4ccccc34)CC2)CC1` under?
Marked response: range 1

Exam item: Which bin should I file `CN1CC=C(c2c[nH]c3ccc(Sc4ccccc4)cc23)CC1.O=C(O)/C=C/C(=O)O` under?
Marked response: range 3

Exam item: Which bin should I file COc1cccc(CCNC(C)Cc2ccc(OCCCCOc3ccccc3)cc2)c1 (stereo not drawn) under?
Marked response: range 3

Exam item: Which bin should I file `CN(c1cc(NC(=O)c2cccs2)ccn1)C1CCN(Cc2cccc(C#N)c2)CC1.O=C(O)C(F)(F)F` under?
Marked response: range 3

Exam item: Which bin should I file Oc1ccccc1CNCC(O)c1cccc(C(F)(F)F)c1 (stereo not drawn) under?
Marked response: range 1

Exam item: Which bin should I file `CC[C@H]1CN2CC[C@H]1C[C@H]2[C@H](O)c1cc(-c2cccc(C)c2)nc2ccc(OC)cc12.Cl` under?
Marked response: range 2

Exam item: Which bin should I file O=C(/C=C/c1cc([N+](=O)[O-])ccc1Cl)NC1CCC(CN2CCC(c3c[nH]c4ccccc34)CC2)CC1 (stereo not drawn) under?
Marked response: range 3

Exam item: Which bin should I file `CC[C@H]1CN2CC[C@@H]1C[C@H]2[C@H](O)c1cc(N2CCC(O)CC2)nc2ccc(OC)cc12` under?
Marked response: range 2

Exam item: Which bin should I file O=C(/C=C/c1ccc(Cl)c(Cl)c1)N(Cc1ccccc1)C1CCC(CN2CCC(c3c[nH]c4ccccc34)CC2)CC1 (stereo not drawn) under?
Marked response: range 3

Exam item: Which bin should I file O=C1Nc2cccc3c2C1(CCCCCN1CC=C(c2c[nH]c4ccccc24)CC1)CCC3 (stereo not drawn) under?
Marked response: range 1

Exam item: Which bin should I file `C[C@H](Cc1ccc(OCCCCCCOc2ccccc2)cc1)NC[C@H](O)c1cccc(Cl)c1.Cl` under?
Marked response: range 3

Exam item: Which bin should I file CCCCCc1cc(O)c2c(c1)OC(C)(C)CC2C1=CCN(Cc2cccnc2)CC1.Cl.O (stereo not drawn) under?
Marked response: range 2

Exam item: Which bin should I file `CN(c1ccnc(Nc2ccc(CS(C)(=O)=O)cc2)n1)C1CCN(Cc2ccccc2)CC1` under?
Marked response: range 2
